The measured values listed here are drawn from patent US10414778B2.

For each record, write down the corresponding GI50.
Test system: HeLa cells
Assay: MTT in vitro growth inhibition assay, HeLa
Format: cell-based, human
Conditions: Homo sapiens, HeLa, 48 h treatment, ± SD, two independent experiments, read-out: cell viability GI50, HeLa
Give bare numbers, in µM.

Please review the following examples before continuing.
O=C1C=CC2(C=C1)CCN(C(=O)C(F)(F)F)Cc1cc(OCc3ccccc3)ccc12 ... 16
COc1cc2c(cc1OCc1ccccc1)CN(C(=O)C(F)(F)F)CCC21C=CC(=O)C=C1 ... 38
O=C1C=CC2(C=C1)CCN(C(=O)C(F)(F)F)Cc1cc3c(cc12)OCCO3 ... 21
COc1cc2c(cc1OC)C1(C=CC(=O)C=C1)CCN(C(=O)C(F)(F)F)C2 ... 83
O=C1C=CC2(C=C1)CCN(C(=O)C(F)(F)F)Cc1c2sc2ccccc12 ... 10

Could I get GI50 for every one of these entries?
1. O=C1C=CC2(C=C1)CCN(C(=O)C(F)(F)F)Cc1cc(OCc3ccccc3)c(OCc3ccccc3)cc12
2. O=C1C=CC2(C=C1)CCN(C(=O)C(F)(F)F)Cc1cc3c(cc12)OCO3
3. O=C1C=CC2(C=C1)CCN(C(=O)C(F)(F)F)Cc1cccc(OCc3ccccc3)c12
4. COc1cc2c(cc1OCc1ccccc1)C1(C=CC(=O)C=C1)CCN(C(=O)C(F)(F)F)C2

[17, 24, 11, 34]
